- Assay Target: Sigma-1 receptor
- Protocol Notes: Sigma-1 receptor competitive radioligand binding assay
- Condition Parameters: read-out: Sigma-1 Receptor Affinity, Ki
Readout: log10(Ki) (log10 of the value in nM)
Field: value | Transform: log10 | Quantity: Ki | Unit: nM

>>> print(df.to_string())
                            chemical_smiles  result_number
0  CC(C)(CCc1ccc(O)c(OC(F)(F)F)c1)N1Cc2ccc(S(C)(=O)=O)cc2C1           1.52

INPUT: Quick one: log10(Ki) for CC(C)(CCc1ccc(O)c(OC(F)(F)F)c1)N1Cc2cccc(F)c2C1 ?
OUTPUT: 1.87

INPUT: Name the recorded log10(Ki) for COc1cc(CCC(C)(C)N2Cc3cccc(C(=O)N4CCN(C(C)=O)CC4)c3C2)ccc1O .
OUTPUT: 4.00

INPUT: Look up log10(Ki): CC(C)Oc1cc(CCC(C)(C)N2Cc3cc4c(cc3C2)OCO4)ccc1O
OUTPUT: 1.67

INPUT: Name the recorded log10(Ki) for CC(C)Oc1cc(CC[C@@H](C)N2Cc3cccc(F)c3C2)ccc1O .
OUTPUT: 0.90

INPUT: Record request: log10(Ki) value, item C[C@H](CCc1ccc(OC(=O)N(C)C)c(OC(F)(F)F)c1)N1Cc2cccc(F)c2C1
OUTPUT: 2.72

INPUT: Using the record for CC(C)COc1cc(CCC(C)(C)N2Cc3ccc(S(C)(=O)=O)cc3C2)ccc1O , report its log10(Ki).
OUTPUT: 1.84

INPUT: Form field: reported log10(Ki) of CC(C)(C)Oc1cc(CCC(C)(C)N2Cc3c(F)ccc(F)c3C2)ccc1O
OUTPUT: 3.36

INPUT: // returns reported log10(Ki) for input C[C@H](CCc1ccc(O)c(OC(F)(F)F)c1)N1Cc2ccc(F)cc2C1
OUTPUT: 0.57
